Tested on: pigweed (Amaranthus retroflexus)
protocol.description: Test A preemergence, visual plant response rating
Assay type: in vivo
condition: 125 g ai/ha, preemergence; 0 to 100 scale, 0 no effect, 100 complete control
# key: entry, value: Pigweed plant response rating

Please review the following examples before continuing.
>  <compound>
CON=C(c1ccccc1C1CC1)c1c(O)c(C)nn(C)c1=O [Compound 104]

>  <Pigweed plant response rating>
70

$$$$
>  <compound>
CCO/N=C(\c1c(O)c(C)nn(C)c1=O)c1ccc(F)c2ccccc12

>  <Pigweed plant response rating>
100

$$$$
>  <compound>
CON=C(c1cccc(C(F)(F)F)c1Cl)c1c(O)c(C)nn(C)c1=O

>  <Pigweed plant response rating>
0

$$$$
>  <compound>
CON=C(c1cccc(C)c1)c1c(O)c(Cl)nn(C)c1=O

>  <Pigweed plant response rating>
100

$$$$
>  <compound>
CON=C(c1ccc(C)o1)c1c(O)c(C)nn(C)c1=O

>  <Pigweed plant response rating>
0

$$$$

Prompt: Consider the compound CO/N=C(\c1cc(C)ccc1Cl)c1c(O)c(C)nn(C)c1=O . State its measured Pigweed plant response rating.
Response: 0

Prompt: State its Pigweed plant response rating for this compound: CON=C(c1ccccc1C1CC1)c1c(O)c(C)nn(C)c1=O [Compound 105]
Response: 70

Prompt: Return Pigweed plant response rating (reported value) for this compound: CON=C(c1cccc(C#N)c1)c1c(O)c(C)nn(C)c1=O
Response: 0

Prompt: // Input: CON=C(c1cc(C)cs1)c1c(O)c(C)nn(C)c1=O (mixture of isomers) . Output its Pigweed plant response rating only.
Response: 0

Prompt: Tell me measured Pigweed plant response rating for CON=C(c1c(Cl)ccc(C)c1F)c1c(O)c(C)nn(C)c1=O please.
Response: 0

Prompt: Supply reported Pigweed plant response rating belonging to this compound: CON=C(c1c(O)c(C)nn(C)c1=O)c1cccc2ccoc12
Response: 0

Prompt: Identify measured Pigweed plant response rating corresponding to CO/N=C(\c1cc(C(F)(F)F)ccc1Cl)c1c(O)c(C)nn(C)c1=O
Response: 80

Prompt: State its Pigweed plant response rating: CO/N=C(/c1c(O)c(C)nn(C)c1=O)c1ccc(OC)c2ccccc12
Response: 0

Prompt: Answer with reported Pigweed plant response rating of CCc1ccccc1C(=NOC)c1c(O)c(C)nn(C)c1=O
Response: 40

Prompt: Give recorded Pigweed plant response rating. Cc1nn(C)c(=O)c(/C(=N\OC(C)C)c2ccc(F)c3ccccc23)c1O
Response: 100

---

Tested on: Italian ryegrass (Lolium mutiflorum)
protocol.description: Test C preemergence, visual plant response rating
Type: in vivo
condition: Test C, 125 g ai/ha, 0 is no effect, 100 is complete control
property.measured: Ryegrass, Italian plant response rating (0 to 100 scale)
Provide a numeric answer; units are not to be included.

Below are worked cases with known answers.
>  <compound>
CCO/N=C(/c1c(O)c(Cl)nn(C)c1=O)c1ccc(F)c2ccccc12 [Compound 211]

>  <assay.system>
Italian ryegrass (Lolium mutiflorum)

>  <recorded.number>
80

$$$$
>  <compound>
CO/N=C(/c1c(O)c(C)nn(C)c1=O)c1cccc2cc(Cl)ccc12 [Compound 301]

>  <assay.system>
Italian ryegrass (Lolium mutiflorum)

>  <recorded.number>
30

$$$$
>  <compound>
Cc1nn(C)c(=O)c(/C(=N\OC(C)C)c2cccc3cc(Cl)ccc23)c1O [Compound 241]

>  <assay.system>
Italian ryegrass (Lolium mutiflorum)

>  <recorded.number>
0

$$$$

We now examine a further compound.
Prompt: Please look at this compound and report its Ryegrass, Italian plant response rating (0 to 100 scale): C#CCO/N=C(/c1c(O)c(Cl)nn(C)c1=O)c1ccc(F)c2ccccc12 [Compound 205]
Response: 100
